- Tested on: production of leukotriene B4 (LTB4), rat abdominal glycogenic infiltration cell
- Measurement Protocol: Inhibitory activity against production of leukotriene B4 (LTB4) from rat abdominal infiltration cell
- Assay type: cell-based, rat (Fisher male)
- Measurement Context: 10 min, cells 5×10^6/ml, calcium ionophore A-23187 2 μg/ml, 37° C., enzyme immunoassay
Measure: IC50 (µM)

Line Notation | IC50 [µM]
COc1c(C)c(O)c(/C=C(\CCCCCc2cccnc2)C(=O)O)c(C)c1O | 7.86

(a) CCCCCCCOc1c(C)c(OC)c(/C=C(\CCCCCc2cccnc2)C(=O)OCC)c(C)c1OC
(b) CCCCOc1c(C)c(OC)c(C)c(/C=C(\CCCCCc2cccnc2)C(=O)OCC)c1OC
Q: # return whichever of a and b has the smaller IC50 Kindly give the label for the entry you pick.
Ans: b
(b: 1.39 µM, a: 3.16 µM)

(1) CCOC(=O)/C(=C/c1c(C)c(OC)c(OC)c(C)c1OC)CCCc1cccnc1
(2) CCCCCCCOc1c(C)c(OC)c(C)c(/C=C(\CCCCCc2cccnc2)C(=O)OCC)c1OC
Q: Of 1 and 2 , which one carries the higher reported IC50? Kindly give the label for the entry you pick.
Ans: 2
